Listing of entries alongside the reported pIC50.
Biological target: EGFR (Homo sapiens (Human), UniProt P00533)
Sequence (P00533 25-1210): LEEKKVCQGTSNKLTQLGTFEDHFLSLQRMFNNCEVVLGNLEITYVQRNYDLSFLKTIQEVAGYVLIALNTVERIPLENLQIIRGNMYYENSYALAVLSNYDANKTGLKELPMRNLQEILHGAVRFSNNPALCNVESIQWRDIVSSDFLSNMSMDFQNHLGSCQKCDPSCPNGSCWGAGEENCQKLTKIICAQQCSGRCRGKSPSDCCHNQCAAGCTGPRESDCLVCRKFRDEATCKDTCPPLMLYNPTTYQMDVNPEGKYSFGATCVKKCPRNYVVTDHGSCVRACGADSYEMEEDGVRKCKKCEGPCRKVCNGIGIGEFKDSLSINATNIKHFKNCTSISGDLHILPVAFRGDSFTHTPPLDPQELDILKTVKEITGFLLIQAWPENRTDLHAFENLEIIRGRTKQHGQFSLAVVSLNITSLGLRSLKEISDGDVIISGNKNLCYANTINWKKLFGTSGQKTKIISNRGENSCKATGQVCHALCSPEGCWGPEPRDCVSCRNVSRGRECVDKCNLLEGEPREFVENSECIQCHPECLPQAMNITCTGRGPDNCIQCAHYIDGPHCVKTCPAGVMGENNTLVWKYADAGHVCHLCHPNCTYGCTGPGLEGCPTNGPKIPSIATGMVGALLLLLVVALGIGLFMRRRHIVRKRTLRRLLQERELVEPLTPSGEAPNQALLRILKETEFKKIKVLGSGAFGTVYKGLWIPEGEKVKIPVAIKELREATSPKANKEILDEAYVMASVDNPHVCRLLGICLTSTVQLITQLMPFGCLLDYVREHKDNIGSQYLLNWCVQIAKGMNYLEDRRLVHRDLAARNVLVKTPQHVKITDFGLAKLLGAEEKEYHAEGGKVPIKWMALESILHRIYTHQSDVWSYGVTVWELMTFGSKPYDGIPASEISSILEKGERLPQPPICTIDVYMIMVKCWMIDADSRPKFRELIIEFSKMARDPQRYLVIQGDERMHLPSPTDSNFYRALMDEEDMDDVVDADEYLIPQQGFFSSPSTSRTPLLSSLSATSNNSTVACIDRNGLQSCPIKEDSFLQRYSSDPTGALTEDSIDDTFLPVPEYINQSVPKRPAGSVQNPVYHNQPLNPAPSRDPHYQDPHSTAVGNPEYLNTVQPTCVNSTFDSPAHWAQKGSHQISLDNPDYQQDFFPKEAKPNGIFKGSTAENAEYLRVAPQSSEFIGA
Experiment: ErbB Enzyme Assay (HTRF KinEASE-TK), Assay 3
Format: biochemical
Settings: EGFR enzyme assay
pIC50: −log10 of the molar value.

# lookup: pIC50 of `C=CC(=O)N1CCN(c2ccc3ncnc(Nc4cc(Cl)c(Oc5ccn6ncnc6c5)cc4F)c3n2)C[C@@H]1C1CC1` ≤ 5.00

pIC50 for `C=CC(=O)N1C[C@H]2C[C@@H]1CN(c1ccc3ncnc(Nc4cc(Cl)c(Oc5cnc6c(c5)ncn6C)cc4F)c3n1)C2` ? ≤ 5.00

I'd like to know its pIC50. The compound in question is `C=CC(=O)N1CCN(c2ccc3ncnc(Nc4cc(C)c(Oc5ccn6ncnc6c5)cc4F)c3n2)C[C@H]1C(C)(C)C` ≤ 5.00
